Test system: S. aureus Newman
ASSAY PROCEDURE: Anti-biofilm potency against S. aureus Newman biofilms
Assay type: cell-based, Staphylococcus aureus
SETUP CONDITIONS: Staphylococcus aureus; S. aureus Newman; value in parentheses; read-out: Potency, IC50 Prior-to-biofilm formation
QUANTITY NAME: IC50 (µg/mL)

structure_smiles_string=CC(C)c1ccc2c(c1)CC[C@H]1[C@](C)(C(=O)N[C@H](Cc3ccccc3)C(=O)O)CCC[C@]21C study_target="S. aureus Newman" endpoint_result=16.2
structure_smiles_string=CC(C)C[C@H](NC(=O)[C@]1(C)CCC[C@]2(C)c3ccc(C(C)C)cc3CC[C@@H]12)C(=O)O study_target="S. aureus Newman" endpoint_result=21.4
structure_smiles_string=CC(C)c1ccc2c(c1)CC[C@H]1[C@](C)(C(=O)N[C@@H](CC3CCCCC3)C(=O)O)CCC[C@]21C study_target="S. aureus Newman" endpoint_result=3.6
structure_smiles_string=CC(C)c1ccc2c(c1)CC[C@H]1[C@](C)(C(=O)N[C@H](Cc3c[nH]c4ccccc34)C(=O)O)CCC[C@]21C study_target="S. aureus Newman" endpoint_result=10.2
structure_smiles_string=CC(C)c1ccc2c(c1)CC[C@H]1[C@](C)(C(=O)N[C@@H](Cc3ccccc3)C(=O)O)CCC[C@]21C study_target="S. aureus Newman" endpoint_result=16.1
structure_smiles_string=CC(C)c1ccc2c(c1)C(=O)C[C@H]1[C@](C)(C(=O)N[C@@H](CC3CCCCC3)C(=O)O)CCC[C@]21C study_target="S. aureus Newman" endpoint_result=29.7

###

Test system: S. aureus ATCC 25923 biofilms
ASSAY PROCEDURE: Anti-biofilm viability assay with redox dye, pre- and post-exposure, S. aureus ATCC 25923 biofilms
Type: cell-based, Staphylococcus aureus
SETUP CONDITIONS: Staphylococcus aureus, ATCC25923; 400 μM; pre-exposure; S. aureus ATCC 25923; read-out: % Inhibition 400 μM PRE
QUANTITY NAME: inhibition at 400 µM

structure_smiles_string=CSCC[C@@H](NC(=O)[C@]1(C)CCC[C@]2(C)c3ccc(C(C)C)cc3CC[C@@H]12)C(=O)O study_target="S. aureus ATCC 25923 biofilms" endpoint_result=102%
structure_smiles_string=CC(C)c1ccc2c(c1)CC[C@H]1[C@](C)(C(=O)N[C@H](C(=O)O)C(C)C)CCC[C@]21C study_target="S. aureus ATCC 25923 biofilms" endpoint_result=100%
structure_smiles_string=CC(C)C[C@H](NC(=O)[C@]1(C)CCC[C@]2(C)c3ccc(C(C)C)cc3CC[C@@H]12)C(=O)O study_target="S. aureus ATCC 25923 biofilms" endpoint_result=100%
structure_smiles_string=CC(C)c1ccc2c(c1)CC[C@H]1[C@](C)(C(=O)N[C@H](Cc3ccccc3)C(=O)O)CCC[C@]21C study_target="S. aureus ATCC 25923 biofilms" endpoint_result=102%

###

Test system: E. coli XL1 blue
ASSAY PROCEDURE: Anti-biofilm activity against E. coli XL1 blue biofilms
Format: cell-based, Escherichia coli
SETUP CONDITIONS: tested at IC50 conc. measured against S. aureus ATCC 25923
QUANTITY NAME: Inhibition percentage (±SD) Prior-to-biofilm formation

compound="CC(C)c1ccc2c(c1)CC[C@H]1[C@](C)(C(=O)N[C@@H](CC3CCCCC3)C(=O)O)CCC[C@]21C [Compound 22]" study_target="E. coli XL1 blue" endpoint_result="5.2 (±11.3) %"
compound="CC(C)c1ccc2c(c1)CC[C@H]1[C@](C)(C(=O)N[C@@H](Cc3ccccc3)C(=O)O)CCC[C@]21C [Compound 21]" study_target="E. coli XL1 blue" endpoint_result="7.4 (±2.7) %"
compound="CC(C)C[C@H](NC(=O)[C@]1(C)CCC[C@]2(C)c3ccc(C(C)C)cc3CC[C@@H]12)C(=O)O [Compound 20, N-(Abiet-8,11,13-trien-18-oyl) L-leucine]" study_target="E. coli XL1 blue" endpoint_result="14.2 (±4.5) %"
compound="CC(C)c1ccc2c(c1)CC[C@H]1[C@](C)(C(=O)N[C@H](Cc3c[nH]c4ccccc34)C(=O)O)CCC[C@]21C [Compound 25]" study_target="E. coli XL1 blue" endpoint_result="8.7 (±5.6) %"
